Hi there, I'd appreciate the recorded Activity for every entry that follows.
test: Induction of singlet oxygen generation in toluene solution assessed as singlet oxygen quantum yield irradiated with 369 nanometer LED light at 300 mW by spectrometric method; type: functional
One number for each entry.

>>> recordednumber("CC(C)(C)C1=Cc2nc1ccc1[nH]c(cc1C(C)(C)C)c1nc(ccc3[nH]c2cc3C(C)(C)C)C(C(C)(C)C)=C1")
0.38
>>> recordednumber("COCCC1=Cc2nc1ccc1[nH]c(cc1CCOC)c1nc(ccc3[nH]c2cc3CCOC)C(CCOC)=C1")
0.32
>>> recordednumber("C1=Cc2nc1ccc1ccc([nH]1)c1nc(ccc3ccc2[nH]3)C=C1")
0.3
>>> recordednumber("CC(C)(C)C1=Cc2nc1ccc1ccc([nH]1)c1nc(ccc3[nH]c2cc3C(C)(C)C)C=C1")
0.36

Now take the following molecule into account.
Which value of Activity has been reported for CC(C)(C)c1cc2[nH]c1ccc1nc(c3ccc(ccc4nc2C=C4)[nH]3)C=C1 in the records?
0.32

----------
assay: Induction of […] generation in pluronic solution irradiated with 369 nanometer LED light at 6 mW by HPF fluorescence method
Activity calls are given as the source filed them. No cut-off for these calls is given here.
quantity: Activity

# example entries with known answers
>>> result("CC(C)(C)C1=Cc2nc1ccc1ccc([nH]1)c1nc(ccc3[nH]c2cc3C(C)(C)C)C=C1")
"Active"
>>> result("C1=Cc2nc1ccc1ccc([nH]1)c1nc(ccc3ccc2[nH]3)C=C1")
"Active"
>>> result("COCCC1=Cc2nc1ccc1[nH]c(cc1CCOC)c1nc(ccc3[nH]c2cc3CCOC)C(CCOC)=C1")
"Active"
>>> result("CC(C)(C)C1=Cc2nc1ccc1[nH]c(cc1C(C)(C)C)c1nc(ccc3[nH]c2cc3C(C)(C)C)C(C(C)(C)C)=C1")
"Active"

Now take the following compound into account.
Which value of Activity has been reported for CC(C)(C)c1cc2[nH]c1ccc1nc(c3ccc(ccc4nc2C=C4)[nH]3)C=C1 in the records?
Active
